# target_desc: Prothrombin (Homo sapiens)
# test_description: Inhibition of human thrombin at 1 ug/ml pre-incubated for 10 mins before Ac-FVR-AMC substrate addition and measured after 10 mins by fluorescence based assay
I'd be grateful if you could share measured inhibition for these entries.

State its inhibition for this molecule: CCn1c(CNc2ccc(C(=N)N)cc2)nc2cc(C(=O)N(CCC(=O)O)c3ccccc3C)ccc21
> 90%

Supply reported inhibition belonging to this molecule: CCn1c(CNc2ccc(C(=N)N)cc2)nc2cc(C(=O)N(CCC(=O)O)c3ccc(F)cc3F)ccc21
> 90%

Supply measured inhibition of CCn1c(CNc2ccc(C(=N)N)cc2)nc2cc(C(=O)N(CCC(=O)O)c3cccc(C)c3C)ccc21 in your reply.
> 90%

###

Assign IC50 to each entry below.
Quick reminder: number only, in nM, skip the unit.

Please look at CCn1c(CNc2ccc(C(=N)N)cc2)nc2cc(C(=O)N(CCC(=O)O)c3ccc(F)cc3F)ccc21 and tell me its recorded IC50 on Prothrombin (Homo sapiens, UniProt P00734).
4.23

Answer with IC50 of CCn1c(CNc2ccc(C(=N)N)cc2)nc2cc(C(=O)N(CCC(=O)O)c3cccc(C)c3)ccc21 measured for Prothrombin (Homo sapiens, UniProt P00734).
2.13
